The measurements presented in this section are drawn from patent US20250376535A1.

experimentalTarget: T1, recombinant human OX40-Fc (human, UniProt P43489 29-214)
T1 construct: also called rh-OX40-Fc; human OX40 hFC (R & D systems)
T1 sequence: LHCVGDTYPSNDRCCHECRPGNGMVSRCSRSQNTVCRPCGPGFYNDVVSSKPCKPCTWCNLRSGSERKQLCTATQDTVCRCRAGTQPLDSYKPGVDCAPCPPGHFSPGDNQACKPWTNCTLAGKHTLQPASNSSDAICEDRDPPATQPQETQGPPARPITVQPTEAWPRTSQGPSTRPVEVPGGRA
testSummary: BLI, VHH-His on anti-His tips, OX40 hFc in solution;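 further: kinetics recorded at 30 °C in PBS pH 7.2, with 200 s of association followed by dissociation monitored in PBS lacking the OX40 protein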
propertyName: koff (s⁻¹)
Form entry: value (s⁻¹) — number only.

[
  {
    "binder": "pgXX88-10 (VHH, not shown: small tags and cut ends) VHH: EVQLVESGGGLVQAGESLRLSCSASGSIRLNAVGWFRQAPVNQRLMVATITHNNSTNYADSVQGRFTIARDDAKNTVTLQMNSLKPEDTAVYMCKVYQLPVPISSHDDYWGQGTQVTVSS",
    "unit": "s⁻¹",
    "readoutNumber": "1e-06"
  },
  {
    "binder": "pgXX88-SZ-4 (VHH, not shown: small tags and cut ends, also called ppXX88-SZ-4) VHH: QVQLVESGGGLAQPGSSLRLSCTASGTVFSILSATWFRQAPGKAHEARELVAFISSDGVSMHADSVKGRFTISRDNAASTVYLQMDNLQPEDTAVYFCKLSNSMMSLEYWGRGTQVTVSS",
    "unit": "s⁻¹",
    "readoutNumber": "8.73e-05"
  }
]

Sample pgXX88-84 (VHH, not shown: small tags and cut ends) VHH: EVQLVESGGRLVQAGDSLKLSCTASGRTFSDYVMGWFRQVPGEGRLMVAVITPAGDTTEYADAVKGRFSISKDSAKRTVNLQMNNLKVDDTAVYYCAAGPSWIGMQFGTAEYWGQGTQVTVSS ; koff observed: 1e-06

Sample pgXX88-SZ-15 (VHH, not shown: small tags and cut ends) VHH: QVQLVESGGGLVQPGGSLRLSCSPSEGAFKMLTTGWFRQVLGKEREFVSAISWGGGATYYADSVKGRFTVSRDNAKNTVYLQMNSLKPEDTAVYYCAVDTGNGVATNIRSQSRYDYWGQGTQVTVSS ; koff observed: 0.000259
